- Tested on: Hepatitis B virus
- protocol text: Antiviral activity against HBV infected in human HepG2.2.15 cells assessed as inhibition of DNA replication
- Assay type: functional, organism-based
- measurement setup: HepG2 2.2.15
experimental readout: log10 IC50 (log10 of the value in µM)

>>> print(df.to_string())
                                    molecule  experimental_readout  observed
 0  C=C1CC[C@@H]2[C@](C)(COC(=O)/C=C/c3cc(OC)c(OC)c(OC)c3)[C@H](O)CC[C@@]2(C)[C@@H]1/C=C/C1=CCOC1=O            log10 IC50      1.01
 1  C=C1CC[C@@H]2[C@](C)(COC(C)=O)[C@H](OC(C)=O)CC[C@@]2(C)[C@@H]1C/C=C1\C=COC1=O            log10 IC50      1.60
 2  C=C1CC[C@@H]2[C@](C)(COC(=O)c3ccco3)[C@H](OC(=O)c3ccco3)CC[C@@]2(C)[C@@H]1/C=C/C1=CCOC1=O            log10 IC50      2.38
 3  C=C1CC[C@@H]2[C@](C)(COC(=O)CCCC)[C@H](O)CC[C@@]2(C)[C@@H]1C/C=C1\C=COC1=O            log10 IC50      1.84
 4  C=C1CC[C@@H]2[C@](C)(COC(=O)c3ccccc3C(=O)O)[C@H](OC(=O)c3ccccc3C(=O)O)CC[C@@]2(C)[C@@H]1C/C=C1\C=COC1=O            log10 IC50      1.34
 5  C=C1CC[C@@H]2[C@](C)(CO)[C@H](OC(=O)c3ccccc3)CC[C@@]2(C)[C@@H]1C/C=C1\C=COC1=O            log10 IC50      1.33
 6  C=C1CC[C@@H]2[C@](C)(CO)[C@H](OC(C)=O)CC[C@@]2(C)[C@@H]1C/C=C1\C=COC1=O            log10 IC50      1.65
 7  C=C1CC[C@@H]2[C@](C)(C=O)[C@H](O)CC[C@@]2(C)[C@@H]1/C=C/C1=CCOC1=O            log10 IC50      1.13
 8  C=C1CC[C@@H]2[C@](C)(COC(=O)c3ccccc3C(=O)O)[C@H](O)CC[C@@]2(C)[C@@H]1C/C=C1\C=COC1=O            log10 IC50      1.60
 9  C=C1CC[C@@H]2[C@](C)(CO)[C@H](O)CC[C@@]2(C)[C@@H]1C/C=C(/C(=O)O)[C@H](O)CO            log10 IC50      1.37
10  C=C1CC[C@@H]2[C@](C)(COC(=O)c3ccco3)[C@H](O)CC[C@@]2(C)[C@@H]1C/C=C1\C=COC1=O            log10 IC50      1.33
11  C=C1CC[C@@H]2[C@](C)(CO)[C@H](O)CC[C@@]2(C)[C@@H]1/C=C/C1=CC(C(C)(C)O)OC1=O (stereo partly drawn)            log10 IC50      2.60
12  C=C1CC[C@@H]2[C@](C)(COC(=O)c3cccs3)[C@H](O)CC[C@@]2(C)[C@@H]1/C=C/C1=CCOC1=O            log10 IC50      1.34
13  C=C1CC[C@H]2[C@@](C)(CCC(=O)[C@@]2(C)C=O)[C@@H]1/C=C/C1=CCOC1=O            log10 IC50      2.42
14  C[C@H](Cn1cnc2c(N)ncnc21)OCP(=O)(O)O [TENOFOVIR ANHYDROUS]            log10 IC50     -0.15
15  C=C1CC[C@@H]2[C@](C)(CO)[C@H](OC(=O)c3cccnc3)CC[C@@]2(C)[C@@H]1C/C=C1\C=COC1=O            log10 IC50      1.58
16  C=C1CC[C@@H]2[C@](C)(COC(=O)CCC(=O)O)[C@H](OC(=O)CCC(=O)O)CC[C@@]2(C)[C@@H]1C/C=C1\C=COC1=O            log10 IC50      1.68
17  C=C1CC[C@@H]2[C@](C)(CO)[C@H](OC(=O)/C=C/c3ccccc3)CC[C@@]2(C)[C@@H]1C/C=C1\C=COC1=O            log10 IC50      1.49
18  C[C@]1(CO)[C@H]2CC[C@@]3(CO3)[C@@H](/C=C/C3=CCOC3=O)[C@]2(C)CC[C@H]1O            log10 IC50      1.89
19  C=C1CC[C@@H]2[C@](C)(COC(=O)c3cccs3)[C@H](OC(=O)c3cccs3)CC[C@@]2(C)[C@@H]1/C=C/C1=CCOC1=O            log10 IC50      2.27
20  C=C1CC[C@H]2[C@@](C)(CCC(=O)[C@@]2(C)C=O)[C@@H]1C/C=C1/C(=O)OC[C@H]1O            log10 IC50      1.71
21  C=C1CC[C@@H]2[C@](C)(COC(C)=O)[C@H](O)CC[C@@]2(C)[C@@H]1C/C=C1\C=COC1=O            log10 IC50      1.64
22  C=C1CC[C@@H]2[C@](C)(COC(=O)c3ccccc3)[C@H](O)CC[C@@]2(C)[C@@H]1C/C=C1\C=COC1=O            log10 IC50      1.31
23  C=C1CC[C@@H]2[C@](C)(CO)[C@H](OC(=O)c3ccco3)CC[C@@]2(C)[C@@H]1C/C=C1\C=COC1=O            log10 IC50      1.40

Source listed as ChEMBL document CHEMBL3259753.
